Target: JAK1 (recombinant purified GST-tagged catalytic domain) (Homo sapiens (Human))
Sequence (P23458 875-1153): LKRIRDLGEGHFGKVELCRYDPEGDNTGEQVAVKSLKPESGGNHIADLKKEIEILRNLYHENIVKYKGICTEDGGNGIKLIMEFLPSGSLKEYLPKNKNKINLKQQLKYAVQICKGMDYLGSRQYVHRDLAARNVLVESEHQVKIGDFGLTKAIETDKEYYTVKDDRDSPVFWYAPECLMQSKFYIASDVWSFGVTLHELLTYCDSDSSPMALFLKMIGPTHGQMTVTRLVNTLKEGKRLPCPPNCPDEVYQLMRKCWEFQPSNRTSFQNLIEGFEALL
Experiment: Jak Biochemical HTRF Assay (JAK1)
Conditions: [ATP] 31.8 μM
readout_type: IC50 (nM)

// worked examples, IC50 included
| compound | measure_unit | IC50 |
| --- | --- | --- |
| CC(C)S(=N)(=O)c1ccc(Nc2nn([C@]3(CC#N)CC[C@@H](C(=O)OC(C)(C)C)OC3)c3cc[nH]c(=O)c23)cc1 (single isomer, unassigned) [Example 5-230] | nM | 0.12 |
| N#CC[C@]1(n2nc(Nc3ccc(C(F)(F)F)cc3)c3c(=O)[nH]ccc32)CC[C@@H](Nc2ccccc2)CC1 | nM | 41.1 |
| COC(=O)N1CCC(CC#N)(n2nc(Nc3ccnc(F)c3)c3c(=O)[nH]ccc32)CC1 | nM | 0.64 |
| CS(=O)(=O)c1ccc(Nc2nn(C3(CC#N)CCN(c4cc(C(F)(F)F)ccn4)CC3)c3cc[nH]c(=O)c23)cc1 | nM | 0.16 |
| N#CC[C@]1(n2nc(Nc3ccc(C#N)cc3)c3c(=O)[nH]ccc32)CCOC1 (single isomer, unassigned) | nM | 13 |
| Cc1cc(Nc2nn(C3(CC#N)CCN(C(=O)OC(C)(C)C)CC3)c3cc[nH]c(=O)c23)ccc1C(=O)N1CC2CCC(C1)O2 | nM | 0.26 |
| CC(C)(C)OC(=O)[C@H]1CC[C@](CC#N)(n2nc(Nc3ccc4c(c3)CN(C(C)(C)C)S4(=O)=O)c3c(=O)[nH]ccc32)CO1 | nM | 1.6 |
| COC(=O)N1CCC(CC#N)(n2nc(Nc3ccc4c(c3)CN(CC(C)C)S4(=O)=O)c3c(=O)[nH]ccc32)CC1 | nM | 0.12 |

1: CC(C)(C)OC(=O)[C@@H]1CC[C@@](CC#N)(n2nc(Nc3ccc4c(c3)CC(C)(C)C4(O)C(F)(F)F)c3c(=O)[nH]ccc32)CO1 (single isomer, unassigned) [Example 5-164]
2: CC(C)S(=O)(=O)c1ccc(Nc2nn([C@]3(CC#N)CC[C@@H](C(=O)OC(C)(C)C)OC3)c3cc[nH]c(=O)c23)cc1 [Example 5-98]
3: CC(O)(c1ccc(Nc2nn([C@]3(CC#N)CCCOC3)c3cc[nH]c(=O)c23)cc1)C(F)(F)F (single isomer, unassigned) [Example 5-110]
4: CCC(=O)N1CCC(CC#N)(n2nc(Nc3ccc(S(=O)(=O)N(C)C)cc3)c3c(=O)[nH]ccc32)CC1
(Q) Put the entries in order of IC50, starting with the largest number. Enter labels, ranked according to the request.
(A) 1, 3, 4, 2

====

Target: JAK2 (recombinant purified GST-tagged catalytic domain) (Homo sapiens (Human), UniProt O60674)
Sequence (O60674 849-1124): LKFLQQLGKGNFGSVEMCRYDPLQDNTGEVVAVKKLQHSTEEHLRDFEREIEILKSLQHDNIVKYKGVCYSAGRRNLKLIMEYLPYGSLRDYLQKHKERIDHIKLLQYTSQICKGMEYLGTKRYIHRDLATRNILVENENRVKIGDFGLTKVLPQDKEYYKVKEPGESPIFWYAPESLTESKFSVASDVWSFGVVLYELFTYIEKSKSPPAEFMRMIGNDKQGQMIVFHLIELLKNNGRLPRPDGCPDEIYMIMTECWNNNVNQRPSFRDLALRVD
Test: Jak Biochemical HTRF Assay (JAK2)
Settings: [ATP] 8.5 μM
readout_type: IC50 (nM)

// worked examples, IC50 included
| compound | measure_unit | IC50 |
| --- | --- | --- |
| CC(C)(C)OC(=O)N1CCC(CC#N)(n2nc(Nc3ccccc3)c3c(=O)[nH]ccc32)CC1 [Example 1-2] | nM | 11.9 |
| CC(C)(C)OC(=O)[C@@H]1CC[C@@](CC#N)(n2nc(Nc3ccc4nc(N5CC6CCC(C5)O6)ccc4c3)c3c(=O)[nH]ccc32)CO1 [Example 5-229] | nM | 1.39 |
| CC(C)(C)OC(=O)[C@@H]1CC[C@@](CC#N)(n2nc(Nc3ccc(S(C)(=O)=O)cc3)c3c(=O)[nH]ccc32)CO1 (racemic) [Example 5-36] | nM | 0.34 |
| CC(C)(C)OC(=O)[C@@H]1CC[C@@](CC#N)(n2nc(Nc3ccc(S(=O)(=O)C(C)(C)C)cc3)c3c(=O)[nH]ccc32)CO1 [Example 5-235] | nM | 0.21 |
| CN(C)S(=O)(=O)c1ccc(Nc2nn(C3(CC#N)CCN(C(=O)CC(C)(C)C)CC3)c3cc[nH]c(=O)c23)cc1 [Example 9-23] | nM | 1.32 |

a: CC(C)(C)OC(=O)[C@@H]1CC[C@@](CC#N)(n2nc(Nc3ccc(C(N)C(F)(F)F)cc3)c3c(=O)[nH]ccc32)CO1 (stereo partly shown) [Example 5-103]
b: COC(=O)N1CCC(CC#N)(n2nc(Nc3ccc4c(c3)CCC4(O)C(F)(F)F)c3c(=O)[nH]ccc32)CC1 (single isomer, unassigned) [Example 5-143]
c: CC(C)(C)OC(=O)[C@@H]1CC[C@](CC#N)(n2nc(Nc3ccc(S(C)(=O)=O)cc3)c3c(=O)[nH]ccc32)CO1 (racemic) [Example 5-35]
(Q) Your job: order these 3 records by IC50, ascending. Enter labels, ranked according to the request.
(A) a, b, c

a: CC(C)(C)OC(=O)N1CC(CC#N)(n2nc(Nc3ccnc(C(F)(F)F)c3)c3c(=O)[nH]ccc32)C1 [Example 4-1]
b: CCN1Cc2cc(Nc3nn(C4(CC#N)CCN(C(=O)OC)CC4)c4cc[nH]c(=O)c34)ccc2S1(=O)=O [Example 5-72]
(Q) Could you point out whether the larger IC50 belongs to a or to b ? // caller expects the label of the chosen entry
(A) a
(a: 218 nM, b: 0.26 nM)

1: Cc1cc(Nc2nn([C@]3(CC#N)CC[C@@H](C(=O)OC(C)(C)C)OC3)c3cc[nH]c(=O)c23)ccc1C(=O)N1CCOCC1C (single isomer, unassigned) [Example 20-9]
2: N#CC[C@@]1(n2nc(Nc3ccc(C(N)C(F)(F)F)cc3)c3c(=O)[nH]ccc32)CCCOC1 (single isomer, unassigned) [Example 5-187]
3: N#CC[C@]1(n2nc(Nc3ccc(Cl)c(F)c3)c3c(=O)[nH]ccc32)CC[C@H](NC2CCCCC2)CC1 [Example 18-21]
(Q) Your job: order these 3 records by IC50, ascending. Enter labels, ranked according to the request.
(A) 1, 2, 3
(1: 0.17 nM, 2: 0.58 nM, 3: 64.2 nM)

====

Molecular target: JAK1 (recombinant purified GST-tagged catalytic domain) (Homo sapiens (Human))
Experiment: Jak Biochemical HTRF Assay (JAK1)
Conditions: [ATP] 31.8 μM
pIC50: −log10 of the molar value.
readout_type: pIC50

// worked examples, pIC50 included
| molecule | pIC50 |
| --- | --- |
| N#CC[C@]1(n2nc(Nc3ccc(S(=O)(=O)C(F)F)cc3)c3c(=O)[nH]ccc32)CC[C@@H](N2CC(F)C2)CC1 [Example 18-27] | 8.65 |
| CC(c1c(F)cccc1F)N1CCC(CC#N)(n2nc(Nc3ccc(S(=O)(=O)N(C)C)cc3)c3c(=O)[nH]ccc32)CC1 (stereo not drawn) [Example 8-17] | 8.85 |

A: CC(C)(C)OC(=O)[C@@H]1CC[C@](CC#N)(n2nc(Nc3ccc(S(C)(=O)=O)cc3)c3c(=O)[nH]ccc32)CO1 (single isomer, unassigned) [Example 5-37]
B: CN(C)S(=O)(=O)c1ccc(Nc2nn(C3(CC#N)CCN(CCCc4ccccc4)CC3)c3cc[nH]c(=O)c23)cc1 [Example 8-15]
C: CCNc1nn(C2(CC#N)CN(C(=O)OC(C)(C)C)C2)c2cc[nH]c(=O)c12 [Example 2-4]
D: CN(C)S(=O)(=O)c1ccc(Nc2nn(C3(CC#N)CCN(Cc4c(F)cccc4F)CC3)c3cc[nH]c(=O)c23)cc1 [Example 8-10]
(Q) Your job: order these 4 records by pIC50, ascending. Enter labels, ranked according to the request.
(A) C, A, B, D
(C: 6.68, A: 8.71, B: 9.28, D: 9.72)

====

Target: JAK2 (recombinant purified GST-tagged catalytic domain) (Homo sapiens (Human), UniProt O60674)
Experiment: Jak Biochemical HTRF Assay (JAK2)
Conditions: [ATP] 8.5 μM
pIC50: −log10 of the molar value.
readout_type: pIC50

// worked examples, pIC50 included
| molecule | pIC50 |
| --- | --- |
| CC(C)(C)N[C@H](c1ccc(Nc2nn([C@@]3(CC#N)CCOC[C@H]3F)c3cc[nH]c(=O)c23)cc1)C(F)(F)F (single isomer, unassigned) [Example 5-267] | 8.40 |
| N#CC[C@]1(n2nc(Nc3ccc4c(c3)CN(C3CCN(CC(F)(F)F)CC3)S4(=O)=O)c3c(=O)[nH]ccc32)CCOC[C@H]1F (single isomer, unassigned) [Example 5-278] | 8.58 |
| COC(=O)N1CCC(CC#N)(n2nc(Nc3ccc(S(=O)(=O)C(C)(C)C)cc3)c3c(=O)[nH]ccc32)CC1 [Example 5-150] | 9.85 |
| N#CC[C@@]1(n2nc(Nc3ccc(S(=O)(=O)C4CCCCC4)cc3)c3c(=O)[nH]ccc32)CCCOC1 [Example 5-193] | 9.18 |

a: CN(C)c1ccc2cc(Nc3nn([C@]4(CC#N)CC[C@@H](C(=O)OC(C)(C)C)OC4)c4cc[nH]c(=O)c34)ccc2n1 [Example 5-222]
b: CN(C)S(=O)(=O)c1ccc(Nc2nn(C3(CC#N)CCN(C(=O)C45CC6C[C@H](C4)C[C@@H](C6)C5)CC3)c3cc[nH]c(=O)c23)cc1 [Example 9-9]
(Q) Could you point out whether the larger pIC50 belongs to a or to b ? // caller expects the label of the chosen entry
(A) a

P: COC(=O)N1CCC(CC#N)(n2nc(Nc3ccnc(F)c3)c3c(=O)[nH]ccc32)CC1 [Example 13-2]
Q: COC(C)(c1ccc(Nc2nn([C@]3(CC#N)CC[C@@H](C(=O)OC(C)(C)C)OC3)c3cc[nH]c(=O)c23)cc1)C(F)(F)F (single isomer, unassigned) [Example 5-172]
R: Cc1cc(Nc2nn([C@@]3(CC#N)CCOC[C@H]3F)c3cc[nH]c(=O)c23)ccc1C(=O)N1CCSCC1 (single isomer, unassigned) [Example 5-261]
(Q) Put the entries in order of pIC50, starting with the largest number. Enter labels, ranked according to the request.
(A) Q, R, P

1: CC(OC(=O)N1CCC(CC#N)(n2nc(Nc3ccc(S(=O)(=O)N(C)C)cc3)c3c(=O)[nH]ccc32)CC1)c1ccccn1 (stereo not drawn) [Example 11-9]
2: CC(C)(C)OC(=O)[C@@H]1CC[C@@](CC#N)(n2nc(Nc3ccc(S(C)(=O)=O)cc3)c3c(=O)[nH]ccc32)CO1 [Example 5-39]
(Q) Could you point out whether the larger pIC50 belongs to 1 or to 2 ? // caller expects the label of the chosen entry
(A) 2

Origin of values: patent US9957264B2
